Attribution: ChEMBL document CHEMBL4017441

- Target Or Test System: Bile salt export pump (Homo sapiens, UniProt O95342)
pIC50: −log10 of the molar value.
Each entry below lists one item and its recorded pIC50 value.

The examples below pair each entry with its known result.
INSERT INTO measurements (compound, outcome_measure, value_measured) VALUES
  ('CCCCOCCOCCOCc1cc2c(cc1CCC)OCO2 [PIPERONYL BUTOXIDE]', 'pIC50', '> 5.00'),
  ('CN1C[C@H](CNC(=O)OCc2ccccc2)C[C@@H]2c3cccc4c3c(cn4C)C[C@H]21 [METERGOLINE]', 'pIC50', '> 5.00'),
  ('Nc1ncnc2nc[nH]c12 [ADENINE]', 'pIC50', '< 3.00'),
  ('CN1CCC[C@H]1c1cccnc1 [NICOTINE]', 'pIC50', '< 3.00'),
  ('N=C(N)c1ccc(OCCCCCOc2ccc(C(=N)N)cc2)cc1 [PENTAMIDINE]', 'pIC50', '< 3.00'),
  ('CC1(C)COC(=O)C1O (stereo unspecified)', 'pIC50', '< 3.00'),
  ('O=C(O)c1ccccc1S [THIOSALICYLIC ACID]', 'pIC50', '< 3.00'),
  ('C[N+]1(C)[C@@H]2C[C@@H](OC(=O)C(O)(c3cccs3)c3cccs3)C[C@H]1[C@@H]1O[C@@H]12 [TIOTROPIUM]', 'pIC50', '< 3.00'),
  ('Oc1cccc2cccnc12 [OXYQUINOLINE]', 'pIC50', '< 3.00'),
  ('OC[C@@H](O)[C@@H](O[C@@H]1O[C@H](CO)[C@H](O)[C@H](O)[C@H]1O)[C@H](O)[C@@H](O)CO [LACTITOL]', 'pIC50', '< 3.00');

Now consider a different compound.
Param item: CS(=O)(=O)CCNCc1ccc(-c2ccc3ncnc(Nc4ccc(OCc5cccc(F)c5)c(Cl)c4)c3c2)o1 [LAPATINIB] ; param system: Bile salt export pump (Homo sapiens, UniProt O95342); output pIC50: > 5.00
